settings: in ethyl acetate, 278.15 K

SMILES_ENTRY: CCCCCOC(=O)Nc1nc(=O)n([C@@H]2O[C@H](C)[C@@H](O)[C@H]2O)cc1F
solubility (mole fraction): 0.003

====

conditions: in ethyl acetate, 283.15 K

SMILES_ENTRY: CCCCCOC(=O)Nc1nc(=O)n([C@@H]2O[C@H](C)[C@@H](O)[C@H]2O)cc1F
solubility (mole fraction): 0.0039
